target: Programmed cell death 1 ligand/protein 1 (Homo sapiens, UniProt Q15116+Q9NZQ7); experiment: PD1-PDL1 HTRF Binding Activity Assay
Sequence (Q9NZQ7 whole entry): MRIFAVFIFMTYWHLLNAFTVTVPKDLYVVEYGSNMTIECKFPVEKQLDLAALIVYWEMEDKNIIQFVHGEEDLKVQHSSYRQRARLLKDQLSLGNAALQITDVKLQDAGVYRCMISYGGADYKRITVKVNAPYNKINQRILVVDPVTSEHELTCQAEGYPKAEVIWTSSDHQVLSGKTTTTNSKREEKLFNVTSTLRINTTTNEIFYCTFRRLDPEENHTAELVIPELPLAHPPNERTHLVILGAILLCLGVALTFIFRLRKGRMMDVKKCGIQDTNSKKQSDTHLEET
Sequence (Q15116 whole entry): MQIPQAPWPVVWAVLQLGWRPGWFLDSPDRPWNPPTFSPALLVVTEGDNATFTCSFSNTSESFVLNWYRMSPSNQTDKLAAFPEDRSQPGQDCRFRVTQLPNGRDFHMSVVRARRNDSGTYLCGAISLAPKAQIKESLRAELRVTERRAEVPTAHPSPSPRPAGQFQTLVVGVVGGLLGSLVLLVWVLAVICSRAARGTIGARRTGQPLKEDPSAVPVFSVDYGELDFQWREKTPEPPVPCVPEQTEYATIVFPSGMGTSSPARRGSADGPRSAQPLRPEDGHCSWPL
pIC50: −log10 of the molar value.

| Compound | pIC50 |
| --- | --- |
| CC(C)N1CCc2cc(C(=O)Nc3cccc(-c4cccc(NC(=O)c5cc(C6CC6)c(CN6CCCC[C@H]6C(=O)O)cn5)c4Cl)c3Cl)ncc2C1 [US12552811, Example 32] | 9.18 |
